# System: PFOS_JYP_2 (DNA, aptamer) CTCTCGGGACGACGGGGTAACGGTTTGATCTCCTTCGTGTTCTGTCGTCCC
# protocolDetails: ThT displacement fluorescence
# testParameters: pH 7.5; 400 nM aptamer, 10 μM thioflavin T; up to 50 μM
propertyLabel: binding

Past entries and their recorded results:
>>> datavalue("CCCCCCCCS(=O)(=O)O")
"no"
>>> datavalue("O=C(O)C(F)(F)C(F)(F)C(F)(F)C(F)(F)C(F)(F)C(F)(F)C(F)(F)C(F)(F)F")
"weak"
>>> datavalue("O=C(O)C(F)(F)C(F)(F)C(F)(F)C(F)(F)C(F)(F)C(F)(F)C(F)(F)C(F)(F)C(F)(F)F")
"weak"
>>> datavalue("O=S(=O)(O)C(F)(F)C(F)(F)C(F)(F)C(F)(F)C(F)(F)C(F)(F)F")
"weak"
>>> datavalue("O=C(O)C(F)(F)C(F)(F)C(F)(F)F")
"no"
>>> datavalue("O=S(=O)(O)C(F)(F)C(F)(F)C(F)(F)C(F)(F)F")
"no"

Alright, here's another compound for you.
In: Item under review: O=C(O)C(F)(F)C(F)(F)C(F)(F)C(F)(F)C(F)(F)C(F)(F)C(F)(F)F . Reported binding?
Out: weak

Origin of measurements: paper PMC12368987
